- System: PC-3 prostate
- protocol_summary: NCI-60 one-dose screen, 48 h (100 = growth as untreated, 0 = no growth, -100 = all killed)
- experimental_conditions: 10 µM unless noted
This is part of a sample that, as a whole, favours compounds with a hit. Of some 83,000 tested, about 20% had one in any assay.
measurement_type: growth (%)
API: value field is a number in %; no unit string.

Example entries and their recorded answers appear below.
INSERT INTO measurements (compound, measurement_type, readout_number) VALUES
  ('Nc1nc(N)c2c(n1)NC(c1sc(Cl)nc1Cl)CC(c1ccc3c(c1)OCO3)=N2 (centres undefined)', 'growth', 48.8),
  ('COc1ccc(Nc2ncccc2C(=O)NCc2cn(Cc3cc(OC)cc(OC)c3)nn2)cc1', 'growth', 90.9),
  ('O=C1Cc2c([nH]c3ccc([N+](=O)[O-])cc23)-c2ccccc2N1', 'growth', 9.61),
  ('COc1cc2c(cc1OCCCOc1cc3c(cc1OC)C(=O)N1CCC[C@H]1C=N3)C=CC(C)(C)O2', 'growth', 78.9),
  ('CCN(C(=O)Nc1cccc2ccccc12)c1ccccc1', 'growth', 85.9);

**Query** Please report growth for the following compound: "Cc1cc(C)c2c(n1)sc1c(Nc3ccc(OCc4ccccc4)cc3)ncnc12"
**Result** 96.2

**Query** Respond only with growth recorded for "O=[N+]([O-])c1cccc(N=C(Nc2cccc([N+](=O)[O-])c2)c2ccccc2)c1"
**Result** 51.6

**Query** Determine its reported growth: CNCc1ccccc1CN(CC(=O)Nc1ccc2c(c1)CC1(C2)C(=O)Nc2ncccc21)C(=O)C(C)(C)C (centres undefined)
**Result** 98

**Query** Read off the recorded growth for "CNC(=O)c1cc(Oc2ccc(NC(=O)c3nc(S(C)(=O)=O)sc3-c3ccc(F)cc3)cc2)ccn1"
**Result** 71.1

---

- Test system: IGROV1 ovarian
- protocol_summary: NCI-60 one-dose screen, 48 h (100 = growth as untreated, 0 = no growth, -100 = all killed)
- experimental_conditions: 10 µM unless noted
This is part of a sample that, as a whole, favours compounds with a hit. Of some 83,000 tested, about 20% had one in any assay.
Criterion: growth meeting or surpassing 40%. Met: criterion met. Not met: criterion not met.

Before answering, review these 4 worked examples.
INSERT INTO results (molecule, discrete_label) VALUES
  ('Cc1ccc(/C=C/C(=N/N=C(N)N)c2ccccc2)cc1', 'criterion met'),
  ('COc1cc2nccc(Oc3ccc(NC(=O)C4(C(=O)Nc5ccc(F)cc5)CC4)cc3)c2cc1OC(=O)c1ccc(N)cc1', 'criterion met'),
  ('O=C(Nc1ccc2ncnc(Nc3ccc(F)c(Cl)c3)c2c1)c1cccs1', 'criterion not met'),
  ('CC(C)NCCCCCNc1cc(O)cc2cccnc12', 'criterion not met');

Now, please, on to the next molecule.
**Query** Reported growth reaches at least 40% for COc1ccc(C2C3CCc4ccccc4C3=NN2C(=O)c2cc(OC)c(OC)c(OC)c2)cc1O (stereo not given) ?
**Result** criterion met

---

- Tested on: SK-MEL-28 melanoma
- protocol_summary: NCI-60 one-dose screen, 48 h
- experimental_conditions: 10 µM unless noted
About 83,000 compounds went through this panel and 20% of them were active in at least one assay; those are over-represented in the sample as a whole. Activity calls are given as the source filed them. The calls were made as follows: active = growth percent below 10; inactive = the rest.
Reply using exactly one outcome from active, inactive

INSERT INTO assay_data (compound, discrete_label) VALUES
  ('CCCCNCC(O)c1cc(-c2ccc(C(F)(F)F)cc2)nc(-c2ccc(C(F)(F)F)cc2)c1 (configuration not stated)', 'active'),
  ('C=CCn1c(SCC(=O)Nc2ccc(/C(C)=N\O)cc2)nnc1-c1cc(-c2ccc(Cl)cc2)nc2ccccc12', 'inactive'),
  ('CCCCn1c(C)nc2ccc(Nc3nc(Cl)nc4nc[nH]c34)cc21', 'inactive'),
  ('C=C(C)c1ccc(/C=N/NC(N)=S)cc1', 'inactive'),
  ('CC1=NN(c2cccc(S(N)(=O)=O)c2)C(=O)C1', 'inactive'),
  ('COc1ccc(/C(=C\c2cc(OC)c(OC)c(OC)c2)C(=O)N2CCN(c3ccccc3)CC2)cc1O', 'inactive'),
  ('COc1ccccc1NC(=O)OCC12COCN1COC2', 'inactive'),
  ('CCOP(=O)(O)OP(=O)(O)OCC', 'inactive'),
  ('Cc1cc(C)c([O-])c(CN(C)CCN(C)Cc2cc(C)cc(C)c2[O-])c1.O=C([O-])c1cccc(C(=O)[O-])n1.[Ti+4]', 'active'),
  ('Brc1ccccc1Cn1c(-c2cncs2)nc2ccccc21', 'inactive');

**Query** Status in this test for "O=[N+]([O-])c1cccc([I+]c2ccccc2)c1" ?
**Result** inactive

**Query** Fill in: this test's call for CCCCCCCCCCC(C(O)c1ccccc1)N1CCCCC1 (configuration not stated) is ___
**Result** active

**Query** Recorded call for "Clc1ccc(Nc2ncnc3c2sc2ncccc23)c(Cl)c1" ?
**Result** inactive

**Query** Short answer needed: outcome of this test for COc1ccc(NC(=O)C2c3ccccc3C(=O)N(CC(C)C)C2c2cccs2)cc1 (configuration not stated) ?
**Result** inactive

**Query** # lookup: test call for "O=C(Nc1cccc(Cl)c1)Nc1cc(C(F)(F)F)ccc1Cl"
**Result** inactive

**Query** Any idea what this test logged for CCOC(CN1CCN(CC(C)C(=O)c2ccccc2)CC1)c1ccccc1 (configuration not stated) ?
**Result** inactive

**Query** What call does the record list for "COc1ccc(Br)c2ccccc12" ?
**Result** inactive

**Query** Please let me know the test result on file for "CN1CCN(Cc2ccc(NC(=O)c3cncc(C#Cc4ncc5ccccn45)c3)cc2C(F)(F)F)CC1" .
**Result** active
